Target: CCKBR (Homo sapiens)
Construct: purchased Promega (in-house HiBiT-GPCR construct library, NanoBRET)
Sequence (P32239 whole entry): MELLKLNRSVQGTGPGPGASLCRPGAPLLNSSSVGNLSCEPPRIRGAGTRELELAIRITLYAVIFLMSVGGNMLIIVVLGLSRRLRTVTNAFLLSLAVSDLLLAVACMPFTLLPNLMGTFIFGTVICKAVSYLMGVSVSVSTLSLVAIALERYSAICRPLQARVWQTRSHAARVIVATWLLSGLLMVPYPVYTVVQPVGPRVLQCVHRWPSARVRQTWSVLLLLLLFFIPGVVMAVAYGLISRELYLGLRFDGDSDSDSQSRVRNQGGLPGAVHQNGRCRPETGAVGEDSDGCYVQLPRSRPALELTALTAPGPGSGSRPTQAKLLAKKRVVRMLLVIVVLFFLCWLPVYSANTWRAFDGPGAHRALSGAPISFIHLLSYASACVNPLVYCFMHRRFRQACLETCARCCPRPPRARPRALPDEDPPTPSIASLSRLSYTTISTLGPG
Test: NanoBRET screen HiBiT-CCKBR in HEK293
Format: binding
Settings: CCKBR; tracer 1μM
Protocol: Each tracer candidate was screened across the entire library of HiBiT-GPCR constructs using NanoBRET as the detection modality. As depicted in Figure 4A, the specificity of interactions was evaluated through decrease in BRET due to competitive displacement of a bound tracer by excess parental compound. Each tracer was analyzed for binding to each HiBiT-GPCR fusion in the absence and in the presence of competing parental compound. […]
The following molecules are shown together with reported NanoBRET Fold Response values.
Field format: numeric only.

// known answers, use as guide
>  <molecule>
N#CN=C(NCCCOc1cccc(CN2CCCCC2)c1)NCCNC(=O)CCOCCOCCOCCOCCNC(=O)CCc1ccc2n1[B-](F)(F)[N+]1=C(c3ccc[nH]3)C=CC1=C2 [Aminopotentidine-2-NB590]

>  <NanoBRET Fold Response>
1.04

$$$$
>  <molecule>
COc1ccccc1N1CCN(CCCCN2C(=O)c3ccc(CNC(=O)CCOCCOCCOCCOCCNC(=O)CCc4ccc5n4[B-](F)(F)[N+]4=C(c6ccc[nH]6)C=CC4=C5)cc3C2=O)CC1 [NAN-190-2-NB590]

>  <NanoBRET Fold Response>
0.97

$$$$

Now consider the entry below.
// Input: O=C(CCOCCOCCOCCOCCNC(=O)CCc1ccc2n1[B-](F)(F)[N+]1=C(c3ccc[nH]3)C=CC1=C2)NCCCN1CCN(C2=Nc3ccccc3Oc3ccc(Cl)cc32)CC1 [Loxapine-a-2-NB590] . Output its NanoBRET Fold Response only.
0.98

====

target: NPY2R (Homo sapiens); construct: purchased Promega (in-house HiBiT-GPCR construct library, NanoBRET); assay: NanoBRET screen HiBiT-NPY2R in HEK293; assay type: binding; conditions: NPY2R; tracer 0.1μM
Sequence (P49146 whole entry): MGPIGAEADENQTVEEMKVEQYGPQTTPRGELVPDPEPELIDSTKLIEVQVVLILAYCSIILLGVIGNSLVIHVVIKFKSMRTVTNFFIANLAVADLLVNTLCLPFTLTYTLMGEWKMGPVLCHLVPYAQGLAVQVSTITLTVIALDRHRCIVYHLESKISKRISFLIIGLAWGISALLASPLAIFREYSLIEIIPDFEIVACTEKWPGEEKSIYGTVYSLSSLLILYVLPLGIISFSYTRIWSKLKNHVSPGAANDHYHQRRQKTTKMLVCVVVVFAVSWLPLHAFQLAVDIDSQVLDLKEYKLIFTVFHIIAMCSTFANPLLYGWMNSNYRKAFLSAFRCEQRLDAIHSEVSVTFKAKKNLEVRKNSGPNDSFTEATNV
We begin with a simple list: items and their reported NanoBRET Fold Response.
Quick one: just the number, no unit, thanks!

// known answers, use as guide
>  <line.notation>
COc1ccccc1N1CCN(CCCCN2C(=O)c3ccc(CNC(=O)CCOCCNC(=O)c4ccc(CNC(=O)CCc5ccc6n5[B-](F)(F)[N+]5=C(c7ccc[nH]7)C=CC5=C6)cc4)cc3C2=O)CC1

>  <observed.value>
1.05

$$$$
>  <line.notation>
CC(C)N(CC[C@H](c1ccccc1)c1cc(CCNC(=O)CCOCCOCCOCCOCCNC(=O)CCc2ccc3n2[B-](F)(F)[N+]2=C(c4ccc[nH]4)C=CC2=C3)ccc1O)C(C)C

>  <observed.value>
1.01

$$$$
>  <line.notation>
CCCn1c(=O)c2[nH]c(-c3ccc(OCC(=O)NCCNC(=O)CCOCCNC(=O)c4ccc(CNC(=O)CCc5ccc6n5[B-](F)(F)[N+]5=C(c7ccc[nH]7)C=CC5=C6)cc4)cc3)nc2n(CCC)c1=O

>  <observed.value>
0.93

$$$$
>  <line.notation>
O=C(CCc1ccc2n1[B-](F)(F)[N+]1=C(c3ccc[nH]3)C=CC1=C2)NCCOCCOCCNC(=O)OCCOCCN1CCN(C2=Nc3ccccc3Sc3ccccc32)CC1

>  <observed.value>
0.99

$$$$
>  <line.notation>
O=C(CCOCCOCCOCCOCCNC(=O)CCc1ccc2n1[B-](F)(F)[N+]1=C(c3ccc[nH]3)C=CC1=C2)NCCCN1CCN(C2=Nc3ccccc3Oc3ccc(Cl)cc32)CC1

>  <observed.value>
1.02

$$$$

Now, please, on to the next compound.
For NPY2R (Homo sapiens), give NanoBRET Fold Response of the listed compound: Cc1cc2c(s1)Nc1ccccc1N=C2N1CCN(CCCNC(=O)CCOCCOCCOCCOCCNC(=O)CCc2ccc3n2[B-](F)(F)[N+]2=C(c4ccc[nH]4)C=CC2=C3)CC1
1.00

====

Target: NPSR1 (Homo sapiens)
Construct: purchased Promega (in-house HiBiT-GPCR construct library, NanoBRET)
Sequence (Q6W5P4 1-371): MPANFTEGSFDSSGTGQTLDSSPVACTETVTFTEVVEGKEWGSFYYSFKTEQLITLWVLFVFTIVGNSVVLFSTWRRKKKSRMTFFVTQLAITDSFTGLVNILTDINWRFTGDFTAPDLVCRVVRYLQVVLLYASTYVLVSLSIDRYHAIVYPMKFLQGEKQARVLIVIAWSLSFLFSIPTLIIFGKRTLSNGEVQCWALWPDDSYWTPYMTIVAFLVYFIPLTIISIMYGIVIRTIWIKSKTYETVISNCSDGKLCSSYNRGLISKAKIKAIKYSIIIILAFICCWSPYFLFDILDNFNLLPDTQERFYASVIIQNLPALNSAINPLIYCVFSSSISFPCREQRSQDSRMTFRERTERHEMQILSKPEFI
Assay: NanoBRET screen HiBiT-NPSR1 in HEK293
Type: binding
Conditions: NPSR1; tracer 0.1μM
observed.property: NanoBRET Fold Response
Please state the value as a number alone, without comment.

Example entries and their recorded answers appear below.
>  <line.notation>
COc1ccccc1N1CCN(CCCCN2C(=O)c3ccc(CNC(=O)CCOCCNC(=O)c4ccc(CNC(=O)CCc5ccc6n5[B-](F)(F)[N+]5=C(c7ccc[nH]7)C=CC5=C6)cc4)cc3C2=O)CC1

>  <NanoBRET Fold Response>
1.10

$$$$
>  <line.notation>
Cc1cc2c(s1)Nc1ccccc1N=C2N1CCN(CCCNC(=O)CCOCCOCCOCCOCCNC(=O)CCc2ccc3n2[B-](F)(F)[N+]2=C(c4ccc[nH]4)C=CC2=C3)CC1

>  <NanoBRET Fold Response>
1.01

$$$$
>  <line.notation>
CCCn1c(=O)c2[nH]c(-c3ccc(OCC(=O)NCCNC(=O)CCOCCNC(=O)c4ccc(CNC(=O)CCc5ccc6n5[B-](F)(F)[N+]5=C(c7ccc[nH]7)C=CC5=C6)cc4)cc3)nc2n(CCC)c1=O

>  <NanoBRET Fold Response>
0.90

$$$$
>  <line.notation>
O=C(CCOCCOCCOCCOCCNC(=O)CCc1ccc2n1[B-](F)(F)[N+]1=C(c3ccc[nH]3)C=CC1=C2)NCCCN1CCN(C2=Nc3ccccc3Oc3ccc(Cl)cc32)CC1

>  <NanoBRET Fold Response>
0.98

$$$$

Next item in the queue.
Read off the recorded NanoBRET Fold Response for O=C(CCc1ccc2n1[B-](F)(F)[N+]1=C(c3ccc[nH]3)C=CC1=C2)NCCOCCOCCNC(=O)OCCOCCN1CCN(C2=Nc3ccccc3Sc3ccccc32)CC1
0.87

====

Known NanoBRET Fold Response of a selection of molecules
target: DRD3 (Homo sapiens); construct: purchased Promega (in-house HiBiT-GPCR construct library, NanoBRET); assay: NanoBRET screen HiBiT-DRD3 in HEK293; assay type: binding; settings: DRD3; tracer 0.1μM
Sequence (P35462 whole entry): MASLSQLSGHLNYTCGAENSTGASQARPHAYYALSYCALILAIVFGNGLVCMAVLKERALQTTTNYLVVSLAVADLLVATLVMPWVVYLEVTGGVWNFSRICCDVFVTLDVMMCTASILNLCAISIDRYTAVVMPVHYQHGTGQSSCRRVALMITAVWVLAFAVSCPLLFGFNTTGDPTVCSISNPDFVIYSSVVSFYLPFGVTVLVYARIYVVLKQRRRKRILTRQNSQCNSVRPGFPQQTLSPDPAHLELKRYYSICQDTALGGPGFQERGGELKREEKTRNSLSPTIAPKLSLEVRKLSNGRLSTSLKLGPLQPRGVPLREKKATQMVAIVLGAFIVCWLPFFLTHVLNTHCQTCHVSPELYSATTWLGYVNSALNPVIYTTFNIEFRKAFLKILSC
Respond numerically, and do not add a unit to the figure.

Previously resolved entries follow.
>  <molecule>
CC(C)N(CC[C@H](c1ccccc1)c1cc(CCNC(=O)CCOCCOCCOCCOCCNC(=O)CCc2ccc3n2[B-](F)(F)[N+]2=C(c4ccc[nH]4)C=CC2=C3)ccc1O)C(C)C [Tolterodine-2-NB590]

>  <NanoBRET Fold Response>
0.97

$$$$
>  <molecule>
CCCn1c(=O)c2[nH]c(-c3ccc(OCC(=O)NCCNC(=O)CCOCCNC(=O)c4ccc(CNC(=O)CCc5ccc6n5[B-](F)(F)[N+]5=C(c7ccc[nH]7)C=CC5=C6)cc4)cc3)nc2n(CCC)c1=O [XAC-3-NB590]

>  <NanoBRET Fold Response>
1.23

$$$$
>  <molecule>
Cc1cc2c(s1)Nc1ccccc1N=C2N1CCN(CCCNC(=O)CCOCCOCCOCCOCCNC(=O)CCc2ccc3n2[B-](F)(F)[N+]2=C(c4ccc[nH]4)C=CC2=C3)CC1 [Olanzapine-a-2-NB590]

>  <NanoBRET Fold Response>
1.74

$$$$
>  <molecule>
N#CN=C(NCCCOc1cccc(CN2CCCCC2)c1)NCCNC(=O)CCOCCOCCOCCOCCNC(=O)CCc1ccc2n1[B-](F)(F)[N+]1=C(c3ccc[nH]3)C=CC1=C2 [Aminopotentidine-2-NB590]

>  <NanoBRET Fold Response>
1.25

$$$$
>  <molecule>
O=C(CCc1ccc2n1[B-](F)(F)[N+]1=C(c3ccc[nH]3)C=CC1=C2)NCCOCCOCCNC(=O)OCCOCCN1CCN(C2=Nc3ccccc3Sc3ccccc32)CC1 [Quetiapine-a-2-NB590]

>  <NanoBRET Fold Response>
1.56

$$$$
>  <molecule>
COc1ccccc1N1CCN(CCCCN2C(=O)c3ccc(CNC(=O)CCOCCOCCOCCOCCNC(=O)CCc4ccc5n4[B-](F)(F)[N+]4=C(c6ccc[nH]6)C=CC4=C5)cc3C2=O)CC1 [NAN-190-2-NB590]

>  <NanoBRET Fold Response>
2.36

$$$$
>  <molecule>
COc1ccccc1N1CCN(CCCCN2C(=O)c3ccc(CNC(=O)CCOCCNC(=O)c4ccc(CNC(=O)CCc5ccc6n5[B-](F)(F)[N+]5=C(c7ccc[nH]7)C=CC5=C6)cc4)cc3C2=O)CC1 [NAN-190-3-NB590]

>  <NanoBRET Fold Response>
2.25

$$$$
>  <molecule>
CC(C)N(CC[C@H](c1ccccc1)c1cc(CCNC(=O)c2ccc(CNC(=O)CCc3ccc4n3[B-](F)(F)[N+]3=C(c5ccc[nH]5)C=CC3=C4)cc2)ccc1O)C(C)C [Tolterodine-BZ-NB590]

>  <NanoBRET Fold Response>
0.91

$$$$

Read the next record carefully.
Tell me its NanoBRET Fold Response given O=C(CCc1ccc2n1[B-](F)(F)[N+]1=C(c3ccc[nH]3)C=CC1=C2)NCc1ccc(C(=O)NCCOCCC(=O)N[C@@H]2CC[C@@]3(O)[C@H]4Cc5ccc(O)c6c5[C@@]3(CCN4CC3CC3)[C@H]2O6)cc1 [Naltrexone-3-NB590] as the entry.
0.79
